# TGT: Gonadotropin-releasing hormone receptor (Homo sapiens, UniProt P30968)
# Sequence (P30968 whole entry): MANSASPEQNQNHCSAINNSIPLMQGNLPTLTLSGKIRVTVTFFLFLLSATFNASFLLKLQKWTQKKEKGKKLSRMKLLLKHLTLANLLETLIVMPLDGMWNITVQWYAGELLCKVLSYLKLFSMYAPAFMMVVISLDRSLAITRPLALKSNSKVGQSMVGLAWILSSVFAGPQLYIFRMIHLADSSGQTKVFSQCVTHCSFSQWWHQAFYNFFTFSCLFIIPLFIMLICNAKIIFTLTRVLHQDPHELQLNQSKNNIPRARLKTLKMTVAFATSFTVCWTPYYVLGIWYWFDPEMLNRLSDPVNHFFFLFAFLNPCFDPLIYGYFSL
# ASSAY NAME: Antagonist activity at human recombinant GnRH receptor assessed as reduction in (D-Trp6)LHRH-induced myo-(1,2)-[3H]inositol production
# Format: functional
VALUE TYPE: IC50 (nM)

Some entries whose results are on file:
CCn1cc(CN2CCN(c3cccc4[nH]c(-c5ccc(C(C)(C)C)cc5)nc34)CC2)c(=O)[nH]c1=O = 4
FC(F)(F)c1nc2c(N3CCN(Cc4cccc5nc(C(F)(F)F)[nH]c45)CC3)cccc2[nH]1 = 21000
CC(C)(C)c1ccc(-c2nc3c(N4CCN(Cc5cccc6[nH]c(=O)[nH]c56)CC4)cccc3[nH]2)cc1 = 63
FC(F)(F)c1nc2c(N3CCN(Cc4cccc5[nH]c(=S)[nH]c45)CC3)cccc2[nH]1 = 3400
FC(F)(F)c1nc2c(N3CCN(CCOc4cccc5[nH]c(=S)[nH]c45)CC3)cccc2[nH]1 = 4500

[P] CC(C)(C)c1ccc(-c2nc3c(N4CCN(CCOc5cccc6nc(C(F)(F)F)[nH]c56)CC4)cccc3[nH]2)cc1
[Q] FC(F)(F)c1nc2c(N3CCN(CCOc4cccc5nc(C(F)(F)F)[nH]c45)CC3)cccc2[nH]1
[R] CC(C)(C)c1ccc(-c2nc3c(N4CCN(Cc5ccc6[nH]c(=O)c(=O)[nH]c6c5)CC4)cccc3[nH]2)cc1
Enquiry: Order the records, beginning with the lowest IC50 and ending with the highest. // format: requested-order list of labels
Return: R, P, Q

[a] CC(C)(C)c1ccc(-c2nc3c(N4CCN(Cc5c[nH]c(=O)[nH]c5=O)CC4)cccc3[nH]2)cc1
[b] CC(C)(C)c1ccc(-c2nc3c(N4CCN(Cc5cccc6[nH]c(=S)[nH]c56)CC4)cccc3[nH]2)cc1
[c] CC(C)c1ccc(-c2nc3c(N4CCN(CCOc5cccc6nc(C(F)(F)F)[nH]c56)CC4)cccc3[nH]2)cc1
[d] CC(C)(C)c1ccc(-c2nc3c(N4CCN(Cc5cccc6[nH]c(=O)c(=O)[nH]c56)CC4)cccc3[nH]2)cc1
[e] Cc1ccc(-c2nc3c(N4CCN(CCOc5cccc6[nH]c(=S)[nH]c56)CC4)cccc3[nH]2)cc1
Enquiry: Hello, I need these entries ordered by IC50, highest reading first. Thanks! // format: requested-order list of labels
Return: e, c, d, b, a

[a] CCc1ccc(-c2nc3c(N4CCN(CCOc5cccc6[nH]c(=S)[nH]c56)CC4)cccc3[nH]2)cc1
[b] CCc1ccc(-c2nc3c(N4CCN(CCOc5cccc6nc(C(F)(F)F)[nH]c56)CC4)cccc3[nH]2)cc1
Enquiry: Which value of IC50 is numerically greater: that of a or that of b ? Refer to your chosen entry by its label in the reply.
Return: b
(b: 2300 nM, a: 640 nM)
